Test system: Human erythrocytes
assay-remarks: Hemolysis assay, human erythrocytes
Assay type: cell-based
condition-summary: 100 μg/ml
Procedure: Human and rabbit erythrocytes were both used to test the hemolytic activities of the peptides. Whole blood was collected in heparinized sterile syringe, transferred to sterile borosilicate tube and centrifuged at 1200 g for 5 minutes at 4° C. The supernatant including the leukocytes above the erythrocyte pellet was discarded. The erythrocytes were washed 3 times using three volumes of prechilled pyrogen-free saline (PFS). An erythrocyte suspension at 0.4% was prepared for the hemolysis assay. […]
Ends that are not written are not given here.
Recorded Haemolytic Activity at 100 μg/ml peptide (hu RBC) % lysis, one value per entry.
Note: unit % is implicit; provide only the numeric part.

Examples with answers:
> print(dat)
                             item.sequence  reported
1  HAEHKVKIGVEQKYGQFPQGTEVTYTCSGNYFLM [S3]         5
2            LLNAVPHKATHAALKFLKEK [S7-vg2]         5
3            HKVKKIVKQLYRAEHKVKKIVKQL [S5]         0
4         GVSTTVLNIYRGIINLLQLNVKK [S8-vg3]       100
5            MRKLVLALAKALAKVDKKNL [S6-vg1]         5

GET /value?item= RAEHKVKKIVKQLYGQFRQLTRVTRTCSRFLRRM [S4] &field=Haemolytic Activity at 100 μg/ml peptide (hu RBC) % lysis returns 20

GET /value?item= IYRGIINLIQLAVKKAQNVYQM [S9-vg4] &field=Haemolytic Activity at 100 μg/ml peptide (hu RBC) % lysis returns 75

---

THP-1 monocytes measurements of Cytotoxicity (Cell lysis) BC50, listed per entry.
Ends that are not written are not given here.

Examples with answers:
> print(dat)
                      item.sequence                        quantity  reported
1     MRKLVLALAKALAKVDKKNL [S6-vg1]  Cytotoxicity (Cell lysis) BC50     26 µM
2  GVSTTVLNIYRGIINLLQLNVKK [S8-vg3]  Cytotoxicity (Cell lysis) BC50     22 µM
3   IYRGIINLIQLAVKKAQNVYQM [S9-vg4]  Cytotoxicity (Cell lysis) BC50     35 µM

GET /value?item= HKVKKIVKQLYRAEHKVKKIVKQL [S5] &field=Cytotoxicity (Cell lysis) BC50 returns 33 µM

GET /value?item= LLNAVPHKATHAALKFLKEK [S7-vg2] &field=Cytotoxicity (Cell lysis) BC50 returns 400 µM

GET /value?item= RAEHKVKKIVKQLYGQFRQLTRVTRTCSRFLRRM [S4] &field=Cytotoxicity (Cell lysis) BC50 returns 3.8 µM
